Consider the following sequences and their measured apparent Kd readings.
Tested on: MS2 coat protein
Assay: apparent Kd, MS2 coat protein; higher = weaker binding; RNA-MaP array
Conditions: designed as: OFF switch for flavin mononucleotide; no ligand
Dear colleague, please return just the value in nM, with no unit written.

>  <biosequence>
UUCUUGUCAGGAUAUGGCCCAGAGUCUAAGGCACCGAACGGCCAGAAGGGACAUGAGGAUCACCCAUGUAUCCU

>  <endpoint_value>
16.3

$$$$
>  <biosequence>
GAAUUAAAUCAAGGAUAUCUGUGGAAGCGGACCUCUUACAUGAGGAUCACCCAUGUUCGCGAGCAAGAGAAGGUGAUUAGCGAA

>  <endpoint_value>
414

$$$$
>  <biosequence>
GAGGCGAAGGAGAAGGCCGCCAGUAAAGGUGACCGUAACAUGAGGAUCACCCAUGUGGAAUAAACGGAGGAUAUCCCUUCUCAG

>  <endpoint_value>
19

$$$$

Turning to the following sequence.
# apparent Kd (sequence: `UACCUUAGCAACAUGAGGAUCACCCAUGUUUGGUGGCGAAUUAGAAGGGACAGCAUUUAUACAAGUCAGGAUAUAAUUUAGGGA` ) is 16.5
